target: BRAF V600E (Homo sapiens, UniProt P15056, V600E); construct: endogenous C-terminal HiBiT fusion tag on BRAF V600E allele; endogenous in cells; host or cells: A375 clone 1F10 (CRISPR-Cas9 knock-in of the HiBiT tag; parental A375 from ATCC); experiment: BRAF HiBiT degradation assay, C-terminal HiBiT-tagged BRAF V600E A375 cells (clone 1F10), Nano-Glo HiBiT Lytic assay; assay type: cell-based; conditions: A-375; A375 (BRAF V600E); percentage protein degraded at maximal compound effect relative to DMSO
Sequence (P15056 whole entry V600E, the tested form may be a part): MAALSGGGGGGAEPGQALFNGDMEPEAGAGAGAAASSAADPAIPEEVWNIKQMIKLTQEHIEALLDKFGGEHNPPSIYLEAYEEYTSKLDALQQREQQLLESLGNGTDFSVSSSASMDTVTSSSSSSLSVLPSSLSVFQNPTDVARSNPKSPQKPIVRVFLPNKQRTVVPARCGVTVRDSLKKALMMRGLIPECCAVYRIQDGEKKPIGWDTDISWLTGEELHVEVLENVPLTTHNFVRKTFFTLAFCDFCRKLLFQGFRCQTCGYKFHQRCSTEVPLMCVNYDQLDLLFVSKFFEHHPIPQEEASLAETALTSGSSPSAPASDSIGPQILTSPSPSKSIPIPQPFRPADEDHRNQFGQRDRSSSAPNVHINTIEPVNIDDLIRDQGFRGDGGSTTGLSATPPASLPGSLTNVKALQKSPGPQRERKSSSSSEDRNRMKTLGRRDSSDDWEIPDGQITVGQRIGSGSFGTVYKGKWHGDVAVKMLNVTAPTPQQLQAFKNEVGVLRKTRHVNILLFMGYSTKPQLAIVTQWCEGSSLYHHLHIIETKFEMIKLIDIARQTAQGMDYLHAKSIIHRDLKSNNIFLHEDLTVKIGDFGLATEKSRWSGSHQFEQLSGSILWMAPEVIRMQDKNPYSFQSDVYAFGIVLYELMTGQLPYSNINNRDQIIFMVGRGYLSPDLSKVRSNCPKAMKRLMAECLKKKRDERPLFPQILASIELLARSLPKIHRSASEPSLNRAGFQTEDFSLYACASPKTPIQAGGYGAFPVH
Parameter: Dmax

Record excerpt, results attached:
>  <Molecule>
CCCS(=O)(=O)Nc1cccc(-c2nc(C3CCN(CC4CCN(C[C@H]5CC[C@H](Oc6ccc(C7CCC(=O)NC7=O)cc6)CC5)CC4)CC3)sc2-c2ccnc(N)n2)c1F (mixture of isomers) [Compound 225]

>  <Parameter>
Dmax

>  <Reported Measurement>
> 70%

$$$$
>  <Molecule>
CCCS(=O)(=O)Nc1cccc(-c2nc(C(C)(C)C)sc2-c2ccnc(Nc3cnn(CC4CCN(C(=O)[C@@H]5CCN(c6ccc(C7CCC(=O)NC7=O)cn6)C5)CC4)c3)n2)c1F (mixture of isomers) [Compound 114]

>  <Parameter>
Dmax

>  <Reported Measurement>
> 70%

$$$$

Kindly consider the entry below.
Exercise: State, in one line, measured Dmax of CCCS(=O)(=O)Nc1cccc(-c2nc(C(C)(C)C)sc2-c2ccnc(Nc3ccc(C4CCN(C(=O)CC5CCN(C6CCN(c7ccc8c(c7)C(=O)N(C7CCC(=O)NC7=O)C8=O)CC6)CC5)CC4)cc3)n2)c1F (racemic) [Compound 158]
Key: 30 to 70%

---

molecular target: BRAF V600E (Homo sapiens, UniProt P15056, V600E); construct: endogenous C-terminal HiBiT fusion tag on BRAF V600E allele; endogenous in cells; host or cells: A375 clone 1F10 (CRISPR-Cas9 knock-in of the HiBiT tag; parental A375 from ATCC); assay: BRAF HiBiT degradation assay, C-terminal HiBiT-tagged BRAF V600E A375 cells (clone 1F10), Nano-Glo HiBiT Lytic assay; type: cell-based; details: A375 (BRAF V600E); DC50 at 50%: fitted conc. at Y=50
Reported DC50 values follow for various compounds

Check out these entries, answers already filled in.
>  <Compound>
CCCS(=O)(=O)Nc1cccc(-c2nc(C(C)(C)C)sc2-c2ccnc(Nc3ccc(C4CCN(C(=O)C5CN(c6ccc(C7CCC(=O)NC7=O)cn6)C5)CC4)cc3)n2)c1F (racemic)

>  <DC50>
< 10 nM

$$$$
>  <Compound>
CCCS(=O)(=O)Nc1cccc(-c2nc(C3CCN(CC4CCN(C(=O)[C@H]5CC[C@H](Oc6cccc(C7CCC(=O)NC7=O)c6)CC5)CC4)CC3)sc2-c2ccnc(N)n2)c1F (mixture of isomers)

>  <DC50>
50 to 500 nM

$$$$
>  <Compound>
CCCS(=O)(=O)Nc1cccc(-c2nc(C(C)(C)C)sc2-c2ccnc(Nc3cnn(CC4CCN(C(=O)C[C@H]5CCN(c6ccc(C7CCC(=O)NC7=O)cc6)C5)CC4)c3)n2)c1F (mixture of isomers)

>  <DC50>
< 10 nM

$$$$
>  <Compound>
CCCS(=O)(=O)Nc1cccc(-c2nc(C(C)(C)C)sc2-c2ccnc(Nc3ccc(C4CCN(CC5CCN(c6cncc(C7CCC(=O)NC7=O)c6)CC5)CC4)cc3)n2)c1F (racemic)

>  <DC50>
10 to 50 nM

$$$$

// next item, DC50 requested
Exercise: Look up and state reported DC50 for CCCS(=O)(=O)Nc1cccc(-c2nc(C3CCN(C(=O)C4CCN(C(=O)C5CCN(c6ccc([C@@H]7CCC(=O)NC7=O)cc6)CC5)CC4)CC3)sc2-c2ccncc2)c1F
Key: 10 to 50 nM
